Can you tell me log10 IC50 for the items I'm about to list?
# Target Or Test System: MMP-2 (Homo sapiens, UniProt P08253)
# Construct: made in house; provided by Dr. Gregory Goldberg, Washington University
# Test Details: biochemical
# Test Parameters: recombinant human MMP-2, MCA peptide substrate 4 μM, pH 7.5, room temperature; read-out: MMP-2 IC50
Note the log scale: values are log10 of IC50 expressed in nM.

COc1cccc(COC2CCC(Oc3ccc(S(=O)(=O)C4(C(=O)NO)CCOCC4)cc3)C2)c1 (stereo not drawn)	1.37
COc1cc(C(=O)C2CCN(c3ccc(S(=O)(=O)C4(C(=O)NO)CCOCC4)cc3)CC2)ccc1Cl	2.64
CCCCSC1CCN(c2ccc(S(=O)(=O)C3(C(=O)NO)CCOCC3)cc2)CC1	1.03

Value sought for every listed compound: log10 IC50.
1. O=C(NO)C1(S(=O)(=O)c2ccc(N3CCC(Oc4ccc5c(c4)CCCC5)CC3)cc2)CCOCC1
2. O=C(c1ccco1)N1CCC(C(=O)NO)(S(=O)(=O)c2ccc(N3CCC(OCc4ccc(Cl)cc4)CC3)cc2)CC1

1: 1.03; 2: 2.00

###

# Target Or Test System: MMP-13 (Homo sapiens)
# Construct: made in house; host or cells: baculovirus / insect cells
# Test Details: biochemical
# Test Parameters: recombinant human MMP-13, MCA peptide substrate 4 μM, pH 7.5, room temperature; read-out: MMP-13 IC50
Measured Property: log10 of IC50 (log10 of the value in µM)
Note the log scale: values are log10 of IC50 expressed in µM.

Recorded results for 5 molecules are shown here.
O=C(NO)C1(S(=O)(=O)c2ccc(N3CCC(OCc4ccncc4)CC3)cc2)CCOCC1	-0.97
O=C(NO)C1(S(=O)(=O)c2ccc(N3CCC(Oc4cccc(C(F)(F)F)c4)CC3)cc2)CCOCC1	-1.56
O=C(NO)C1(S(=O)(=O)c2ccc(N3CCC(SCc4ccc(C(F)(F)F)cc4)CC3)cc2)CCN(C2CC2)CC1	-3.30
CC(C)OCc1ccc(COC2CCN(c3ccc(S(=O)(=O)C4(C(=O)NO)CCOCC4)cc3)CC2)cc1	-2.43
O=C(NO)C1(S(=O)(=O)c2ccc(OC3CCC(OCc4ccccc4Cl)C3)cc2)CCOCC1 (stereo not shown) [Example 688]	-1.75

Value sought for every listed molecule: log10 of IC50.
1. CCN1CCN(c2ccc(S(=O)(=O)C3(C(=O)NO)CCOCC3)cc2)CC1
2. O=C(NO)C1(S(=O)(=O)c2ccc(N3CCC(c4ccccc4C(F)(F)F)CC3)cc2)CCOCC1

-0.30
-1.54

###

# Target Or Test System: MMP-1 (Homo sapiens, UniProt P03956)
# Construct: made in house; host or cells: transfected HT-1080 cells (provided by Dr. Harold Welgus, Washington University)
# Sequence (P03956 100-469): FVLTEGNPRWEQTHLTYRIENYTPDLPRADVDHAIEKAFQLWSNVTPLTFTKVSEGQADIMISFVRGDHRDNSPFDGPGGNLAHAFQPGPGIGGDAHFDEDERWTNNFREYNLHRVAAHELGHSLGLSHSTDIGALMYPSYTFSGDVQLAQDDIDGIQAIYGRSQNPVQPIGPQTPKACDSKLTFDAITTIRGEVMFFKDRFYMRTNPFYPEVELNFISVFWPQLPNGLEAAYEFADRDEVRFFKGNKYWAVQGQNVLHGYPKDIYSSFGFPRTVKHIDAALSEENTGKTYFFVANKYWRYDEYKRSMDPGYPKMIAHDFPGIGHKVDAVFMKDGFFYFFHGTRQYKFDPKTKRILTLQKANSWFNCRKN
# Test Details: biochemical
# Test Parameters: recombinant human MMP-1, MCA peptide substrate 4 μM, pH 7.5, room temperature; read-out: MMP-1 IC50
Can you tell me IC50 for the items I'm about to list?

CC1CC(C)CN(C(=O)C2CCN(c3ccc(S(=O)(=O)C4(C(=O)NO)CCN(C(=O)CN5CCC(O)CC5)CC4)cc3)CC2)C1 (centres unmarked)	> 10 µM
CC1CC(C)CN(C(=O)C2CCN(c3ccc(S(=O)(=O)C4(C(=O)NO)CCOCC4)cc3)CC2)C1 (centres unmarked)	> 10 µM
COc1cccc(NC(=O)C2CCN(c3ccc(S(=O)(=O)C4(C(=O)NO)CCOCC4)cc3)CC2)c1	> 10 µM
O=C(NO)C1(S(=O)(=O)c2ccc(N3CC4CC3CN4c3cccc(F)c3)cc2)CCOCC1 (centres unmarked)	> 10 µM
O=C(Nc1c(Cl)cccc1Cl)N1CCC(C(=O)NO)(S(=O)(=O)c2ccc(Oc3ccc(OC(F)(F)F)cc3)cc2)CC1	7 µM

Value sought for every listed molecule: IC50.
1. O=C(Nc1cccc(Cl)c1)C1CCN(c2ccc(S(=O)(=O)C3(C(=O)NO)CCOCC3)cc2)CC1
2. CCC(C)CCOCc1ccc(COC2CCN(c3ccc(S(=O)(=O)C4(C(=O)NO)CCOCC4)cc3)CC2)cc1 (centres unmarked)

> 10 µM
> 10 µM

###

# Target Or Test System: MMP-2 (Homo sapiens, UniProt P08253)
# Construct: made in house; provided by Dr. Gregory Goldberg, Washington University
# Sequence (P08253 110-660): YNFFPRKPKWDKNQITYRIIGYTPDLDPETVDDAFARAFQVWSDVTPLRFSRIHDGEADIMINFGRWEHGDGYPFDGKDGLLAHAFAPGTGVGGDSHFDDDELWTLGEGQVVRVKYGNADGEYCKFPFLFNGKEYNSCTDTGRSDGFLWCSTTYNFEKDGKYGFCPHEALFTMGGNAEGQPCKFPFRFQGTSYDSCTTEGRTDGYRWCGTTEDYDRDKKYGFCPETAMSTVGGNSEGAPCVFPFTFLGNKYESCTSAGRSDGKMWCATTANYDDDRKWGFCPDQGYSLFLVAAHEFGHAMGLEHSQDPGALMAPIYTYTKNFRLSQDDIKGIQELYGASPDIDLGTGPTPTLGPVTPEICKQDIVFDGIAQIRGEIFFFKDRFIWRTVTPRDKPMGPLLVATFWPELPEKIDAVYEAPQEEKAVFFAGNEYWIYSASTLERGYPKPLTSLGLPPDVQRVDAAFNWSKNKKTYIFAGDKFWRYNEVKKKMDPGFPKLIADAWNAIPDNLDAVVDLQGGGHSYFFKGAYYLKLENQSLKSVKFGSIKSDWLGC
# Test Details: biochemical
# Test Parameters: recombinant human MMP-2, MCA peptide substrate 4 μM, pH 7.5, room temperature; read-out: MMP-2 IC50
# Method: The compounds prepared in the manner described in the Examples above were assayed for activity by an in vitro assay. […] Briefly, 4-aminophenylmercuric acetate (APMA) or trypsin-activated MMPs were incubated with various concentrations of the inhibitor compound at room temperature for 5 minutes. […] Inhibition was measured as a reduction in fluorescent intensity as a function of inhibitor concentration, using a Perkin Elmer L550 plate reader. The IC50 values were calculated from those values. […]
Can you tell me pIC50 for the items I'm about to list?
Answers are plain numbers, as −log10 of the molar value.

CSc1ccc(C(=O)C2CCN(c3ccc(S(=O)(=O)C4(C(=O)NO)CCOCC4)cc3)CC2)cc1 [Example 856]	6.60

Value sought for every listed molecule: pIC50.
1. CC1CC(C)CN(C(=O)C2CCN(c3ccc(S(=O)(=O)C4(C(=O)NO)CCN(C(=O)Cn5ccnc5)CC4)cc3)CC2)C1 (stereo not shown) [Example 279]
2. O=C(NO)C1(S(=O)(=O)c2ccc([C@H]3CC[C@H](c4ccccc4)CC3)cc2)CCOCC1 [Example 782]
3. CC(C)N1CCC(C(=O)NO)(S(=O)(=O)c2ccc(N3CCC(SCc4ccc(OC(F)(F)F)cc4)CC3)cc2)CC1 [Example 462]
4. COCCNCC(=O)N1CCC(C(=O)NO)(S(=O)(=O)c2ccc(Oc3ccc(C(F)(F)F)cc3)cc2)CC1 [Example 332]

[5.14, 7.00, 7.10, 9.40]

Value sought for every listed molecule: pIC50.
1. O=C(CN1CCOCC1)N1CCC(C(=O)NO)(S(=O)(=O)c2ccc(Oc3ccc(C(F)(F)F)cc3)cc2)CC1 [Example 319]
2. N#Cc1ccccc1-c1ccc(COC2CCN(c3ccc(S(=O)(=O)C4(C(=O)NO)CCOCC4)cc3)CC2)cc1 [Example 557]

1. 9.70
2. 6.70

###

Can you tell me log10 of IC50 for the items I'm about to list?
# Target Or Test System: MMP-13 (Homo sapiens, UniProt P45452)
# Construct: made in house; host or cells: baculovirus / insect cells
# Test Details: biochemical
# Test Parameters: recombinant human MMP-13, MCA peptide substrate 4 μM, pH 7.5, room temperature; read-out: MMP-13 IC50
Note the log scale: values are log10 of IC50 expressed in nM.

Recorded results for 10 molecules are shown here.
O=C(NO)C1(S(=O)(=O)c2ccc(N3CCC(CCOCc4ccc(Cl)c(Cl)c4)CC3)cc2)CCOCC1 [Example 502]	1.15
O=C(Nc1cccc(Cl)c1)C1CCN(c2ccc(S(=O)(=O)C3(C(=O)NO)CCOCC3)cc2)CC1 [Example 70]	1.03
CN1CCN(CC(=O)N2CCC(C(=O)NO)(S(=O)(=O)c3ccc(Oc4ccc(C(F)(F)F)cc4)cc3)CC2)CC1 [Example 324]	-0.15
O=C(c1ccc2ccccc2c1)C1CCN(c2ccc(S(=O)(=O)C3(C(=O)NO)CCOCC3)cc2)CC1 [Example 844]	0.70
O=C(NO)C1(S(=O)(=O)c2ccc(N3CCC(Oc4ccc(OC(F)(F)F)cc4)CC3)cc2)CCOCC1 [Example 480]	1.27
CCCNC(=O)C1CCN(c2ccc(S(=O)(=O)C3(C(=O)NO)CCOCC3)cc2)CC1 [Example 57]	1.90
O=C(NO)C1(S(=O)(=O)c2ccc(Oc3ccc(C(F)(F)F)cc3)cc2)CCN(c2ncccc2[N+](=O)[O-])CC1 [Example 374]	0.52
COCCN1CCC(C(=O)NO)(S(=O)(=O)c2ccc(N3CCC(C(=O)N4CCc5ccccc54)CC3)cc2)CC1 [Example 246, Monohydrate]	1.51
O=C(c1ccc(F)cc1)C1CCN(c2ccc(S(=O)(=O)C3(C(=O)NO)CCOCC3)cc2)CC1 [Example 654]	0.51
COC1CCCN(c2ccc(S(=O)(=O)C3(C(=O)NO)CCOCC3)cc2)C1 (stereo not drawn) [Example 524]	3.43

Value sought for every listed molecule: log10 of IC50.
1. Cc1ccc([N+](=O)[O-])c(OC2CCN(c3ccc(S(=O)(=O)C4(C(=O)NO)CCOCC4)cc3)CC2)c1 [Example 550]
2. CCOC1CCCN(c2ccc(S(=O)(=O)C3(C(=O)NO)CCOCC3)cc2)C1 (stereo not drawn) [Example 562]
3. O=C(NO)C1(S(=O)(=O)c2ccc(N3CCC(OCc4ccc(COCC(F)(F)F)cc4)CC3)cc2)CCOCC1 [Example 607]
4. O=C(NO)C1(S(=O)(=O)c2ccc(Oc3ccc(OC(F)(F)F)cc3)cc2)CCN(S(=O)(=O)c2ccccc2)CC1 [Example 194]

1.30
3.08
0.46
-0.52

Fill blank: measured log10 of IC50 of the molecule COCCN1CCC(C(=O)NO)(S(=O)(=O)c2ccc(N3CCC(OCc4ccc(F)c(C(F)(F)F)c4)CC3)cc2)CC1 [Example 446] is ____.
2.43
